# SYSTEM: KRas G12S (Homo sapiens, UniProt P01116, G12S);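 further: TR-FRET displacement binding to KRas, read after one hour incubation at room temperature, IC50 from four-parameter fit of percent of control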
# Sequence (P01116 1-169 isoform P01116-2 G12S): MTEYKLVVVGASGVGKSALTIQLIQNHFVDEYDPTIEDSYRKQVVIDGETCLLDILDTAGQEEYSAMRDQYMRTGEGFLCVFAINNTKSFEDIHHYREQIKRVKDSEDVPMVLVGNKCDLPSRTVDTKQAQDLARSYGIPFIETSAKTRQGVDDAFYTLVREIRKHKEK
# ASSAY_TEXT: biochemical
pIC50: −log10 of the molar value.
Property: pIC50; scope: individual compounds
RECORDED_ENDPOINT: pIC50

                                   compound  recorded_endpoint  comparison_sign  numeric_value
0  Cc1cc(N)nc(-c2ncc3c(N4CCCC(C)(O)C4)nc(OC[C@@]45CCCN4C[C@H](F)C5)nc3c2F)c1C(F)(F)F (stereo partly shown) [Example 459]              pIC50                =           6.09
1  CCc1c(F)ccc2cc(O)cc(-c3ncc4c(N5CCCn6nc(C(=O)N(C)C)cc6C5)nc(OC[C@@]56CCCN5C[C@H](F)C6)nc4c3F)c12 [Example 326]              pIC50                ≥           8.70
2  CNC(=O)c1cc2n(n1)CCCN(c1nc(OCC34CCCN3CCC4)nc3c(F)c(-c4cccc5cccc(F)c45)ncc13)C2 [Example 259]              pIC50                =           6.19
3  CCc1c(F)ccc2cccc(-c3ncc4c(N5CCC[C@@](C)(O)C5)nc(OCC56CCCN5CCC6)nc4c3F)c12 [Example 15]              pIC50                =           7.38
